Data origin, for the record: patent US20150231077A1

# ASSAY_METHOD_TEXT: Formation and TEM size of amine-passivated Au nanoparticles
# Type: physicochemical
# ASSAY_CONTEXT: size of the Au nanoparticle formed with the named amine compound as ligand, same synthesis conditions
# Protocol: In a typical synthesis of water soluble nanoparticles Au:MTX, 5 μmol of HAuCl4 and 25 μmol of MTX were dispersed with brief sonication in 2 mL methanol in a tri-neck 15 mL flask on ice water (0° C.) bath under Ar purge. After 1 hour of stirring at 700 rpm, 0.5 mL of freshly prepared 0.11 M NaBH4 on ice was added drop-wise at 1200 rpm. After ˜1 hour, stirring speed was reduced to 700 rpm and kept for additional ˜30 minutes. […]
A collection of molecules and their measured nanoparticle (formation of monolayer-protected Au nanoparticles)
MEASURED_QUANTITY: nanoparticle (formation of monolayer-protected Au nanoparticles) (nm)

{"MOLECULE": "Nc1ncnc2c1ncn2[C@@H]1O[C@H](COP(=O)(O)OP(=O)(O)O)[C@@H](O)[C@H]1O [adenosine diphosphate]", "READING_UNIT": "nm", "MEASUREMENT": 2.3}
{"MOLECULE": "[H]/N=C(/N)N[C@H]1[C@H](O)[C@@H](O)[C@H](O[C@@H]2O[C@@H](C)[C@](O)(C=O)[C@H]2O[C@@H]2O[C@@H](CO)[C@H](O)[C@@H](O)[C@@H]2NC)[C@@H](N/C(N)=N\\[H])[C@@H]1O [streptomycin, reference compound]", "READING_UNIT": "nm", "MEASUREMENT": 2.5}
{"MOLECULE": "Nc1ccn([C@@H]2O[C@H](COP(=O)(O)OP(=O)(O)O)[C@@H](O)[C@H]2O)c(=O)n1 [cytidine diphosphate]", "READING_UNIT": "nm", "MEASUREMENT": 2.5}
{"MOLECULE": "Cc1cc2nc3c(=O)[nH]c(=O)nc-3n(C[C@H](O)[C@H](O)[C@H](O)COP(=O)(O)OP(=O)(O)OC[C@H]3O[C@@H](n4cnc5c(N)ncnc54)[C@H](O)[C@@H]3O)c2cc1C [flavin adenine dinucleotide (FAD), flavin adenine dinucleotide]", "READING_UNIT": "nm", "MEASUREMENT": 4.2}
{"MOLECULE": "COc1cccc2c1C(=O)c1c(O)c3c(c(O)c1C2=O)C[C@@](O)(C(=O)CO)C[C@@H]3O[C@H]1C[C@H](N)[C@H](O)[C@H](C)O1 [doxorubicin, reference compound]", "READING_UNIT": "nm", "MEASUREMENT": 3.3}
{"MOLECULE": "Nc1nc2c(ncn2[C@@H]2O[C@H](CO)[C@@H](O)[C@H]2O)c(=O)[nH]1", "READING_UNIT": "nm", "MEASUREMENT": 2.7}
{"MOLECULE": "Nc1nc2c(ncn2[C@@H]2O[C@H](COP(=O)(O)OP(=O)(O)OP(=O)(O)O)[C@@H](O)[C@H]2O)c(=O)[nH]1 [guanosine triphosphate]", "READING_UNIT": "nm", "MEASUREMENT": 2.3}
{"MOLECULE": "Cc1ncc(C[n+]2csc(CCOP(=O)(O)OP(=O)(O)O)c2C)c(N)n1 [thyamine pyrophosphate]", "READING_UNIT": "nm", "MEASUREMENT": 3.1}
{"MOLECULE": "Nc1nc2c(ncn2[C@@H]2O[C@H](COP(=O)(O)OP(=O)(O)O)[C@@H](O)[C@H]2O)c(=O)[nH]1 [guanosine diphosphate]", "READING_UNIT": "nm", "MEASUREMENT": 2.4}
{"MOLECULE": "Nc1ccn([C@@H]2O[C@H](COP(=O)(O)OP(=O)(O)OP(=O)(O)O)[C@@H](O)[C@H]2O)c(=O)n1 [cytidine triphosphate]", "READING_UNIT": "nm", "MEASUREMENT": 2.6}
